The values you see were collected from ChEMBL document CHEMBL1136055.

Biological target: GABA-A receptor; alpha-3/beta-3/gamma-2 (Homo sapiens) (UniProt P18507+P28472+P34903)
Test: Modulatory effect on coapplication with GABA at human Gamma-aminobutyric acid A receptor alpha-3-beta-3-gamma-2 in Xenopus oocytes. Further: test concentration or dose not given here.
Assay type: cell-based
Conditions: Oocyte
metric: percent modulation of GABA EC20 response (%)

[A] COc1ccc(-c2cc(-c3ccccc3)c(=O)n(C)c2-c2ccncc2)cc1
[B] COC(=O)c1cc(-c2ccc(OC)cc2)c(-c2ccc(N(C)C)cc2)n(C)c1=O
[C] COC(=O)c1cc(-c2ccc(OC)cc2)c(-c2ccncc2)n(C)c1=O
[D] COc1ccc(-c2cc(-c3nccs3)c(=O)n(C)c2-c2ccncc2)cc1
Lookup: Re-order the entries listed above so their percent modulation of GABA EC20 response values fall from first to last. The reply should contain the labels ordered as requested.
Found: B, A, D, C

====

Biological target: GABA-A receptor; alpha-3/beta-3/gamma-2 (Homo sapiens) (UniProt P18507+P28472+P34903)
Assay: Modulatory effect on coapplication with GABA at human Gamma-aminobutyric acid A receptor alpha-3-beta-3-gamma-2 in Xenopus oocytes. Further: test concentration or dose not given here.
Type: cell-based
Conditions: Oocyte
metric: percent modulation of GABA EC20 response (%)

COc1ccc(-c2cc(-c3cccs3)c(=O)n(C)c2-c2ccncc2)cc1 ... 36
COc1ccc(-c2cc(-c3ccsc3)c(=O)n(C)c2-c2ccncc2)cc1 ... 18

[A] COc1ccc(-c2cc(-c3noc(C)n3)c(=O)n(C)c2-c2ccncc2)cc1
[B] COc1ccc(-c2cc(-c3nc(C)cs3)c(=O)n(C)c2-c2ccncc2)cc1
Lookup: // max by percent modulation of GABA EC20 response over [ A , B ] Reply with the label of the item you choose.
Found: A
(A: 81%, B: 43%)

[a] COc1ccc(-c2cc(-c3nc(C)cs3)c(=O)n(C)c2-c2ccnnc2)cc1
[b] Cc1csc(-c2cc(-c3ccncc3)c(-c3ccncc3)n(C)c2=O)n1
Lookup: Identify the entry with the smaller percent modulation of GABA EC20 response: a or b . Output the label that corresponds to your choice.
Found: b
